All figures here come from PubChem BioAssay.

System: XIP peptide (Xip251-270)
measurement description: small-molecule binders of XIP peptide, primary screen, biochemical, small-molecule microarray, fluorescence 635/667 nm, 0.5 µg/mL protein (AID 1183)
run parameters: small-molecule microarray binding, fluorescence 635 nm; higher = more signal
Entries get a class label from measured composite z-score. See ranges: LOW: < 0.3; MID: ≥ 0.3 and < 0.6; HIGH: ≥ 0.6

INSERT INTO measurements (molecule, cat) VALUES
  ('COC(=O)c1cn(C[C@@H](Cc2ccccc2)NC(=O)N[C@H](CO)CCc2oc(C(C)=O)c(C(=O)OC)c2C(=O)OC)nn1', 'LOW'),
  ('CCOC(=O)C[C@H]1[C@H](OC(=O)c2cc3ccccc3oc2=O)[C@@H](NC(=O)c2ccc(-c3ccccc3)cc2)c2cc(OCCCO)ccc2N1C(=O)c1ccc2ccccc2n1', 'MID'),
  ('CC(CO)N1C(=O)[C@@H]2[C@H]3C(=O)OCC=C[C@H]3OC23C=CCN(C(C)(C)C)C(=O)[C@@H]13 (stereo partly drawn)', 'LOW'),
  ('C[C@@H]1NC(=O)[C@@]23C(=O)N[C@@H](Cc4ccccc4)C2[C@H](C)[C@@]2(C)O[C@H]2C3/C=C/C/C=C\CNC(=O)[C@@H]2CCCN2C1=O (stereo partly drawn)', 'LOW'),
  ('CC(C)OC(=O)C=C1C[C@@H](c2ccc(C(F)(F)F)cc2)O[C@@H](c2ccc(C(F)(F)F)cc2)O1', 'MID'),
  ('COc1ccc([Si](C)(C)[C@H]2[C@H](CCO)O[C@@]3(C(=O)N(Cc4cccc(N5C(=O)COc6ccccc65)c4)c4ccccc43)[C@@H]2C)cc1', 'HIGH'),
  ('[N-]=[N+]=Nc1ccccc1[C@@H]1OC(c2ccc(OCCCO)cc2)=N[C@]1(Cc1ccccc1)C(=O)NCC(O)CO (stereo partly drawn)', 'HIGH'),
  ('C=C(COC)/C(=C/C[C@H](OC(C)=O)c1ccc(OCCO)cc1)c1cc(C(=O)OC)ccc1OC', 'HIGH'),
  ('CO[C@H]1O[C@H](CO)[C@@H](OC(=O)Nc2ccc3c(c2)OCO3)[C@H](OC(=O)c2cc3ccccc3[nH]2)[C@H]1OC(=O)c1cc2ccccc2[nH]1', 'MID'),
  ('O=C1O[C@@H](c2ccccc2)[C@@H](c2ccccc2)N2[C@@H](c3ccccc3OCCO)[C@]3(C(=O)Nc4ccc(C#CCCO)cc43)[C@@H](C(=O)N3CCCCCCC3)[C@H]12', 'HIGH'),
  ('CCC[C@@H]1C[C@@]1(CCC)[C@@H](NC(=O)OCc1ccccc1)c1ccc(-c2ccccc2)cc1', 'LOW'),
  ('C=C(/C(=C/C[C@@H](OC(C)=O)c1cccc(OCCO)c1)c1cc(C(=O)OC)ccc1OC)C(C)C', 'MID'),
  ('COCCOC(=O)N1C(=O)[C@@]2(c3cc(C#CC4=CCCCC4)ccc31)[C@H](c1ccc(OCCO)cc1)N1[C@H](c3ccccc3)[C@H](c3ccccc3)OC(=O)[C@H]1[C@@H]2C(=O)N1CCN(c2ncccn2)CC1', 'LOW');
